System: Staphylococcus aureus
EXPERIMENT NOTES: Increase in 5 ug ofloxacin antibacterial activity against Staphylococcus aureus SA1199B mutant overexpressing NorA at 128 ug/ml by disk diffusion method
Assay type: functional
Would you mind labelling by inhibition zone (IZ)? At or over 20 mm is Met, under is Not met.

Could you tell me if the measured inhibition zone (IZ) of COc1ccc2[nH]c([S+]([O-])Cc3nc4ccccc4n4cccc34)nc2c1 (stereo not drawn) reaches 20 mm or more?
Met

Could you tell me if the measured inhibition zone (IZ) of [O-][S+](Cc1nc2ccccc2n2cccc12)c1nc2ccccc2[nH]1 (stereo not drawn) reaches 20 mm or more?
Met

Could you tell me if the measured inhibition zone (IZ) of Cn1ccnc1[S+]([O-])Cc1nc2ccccc2n2cccc12 (stereo not drawn) reaches 20 mm or more?
Not met

Could you tell me if the measured inhibition zone (IZ) of COc1ccc2[nH]c([S+]([O-])Cc3ncc(C)c(OC)c3C)nc2c1 (stereo not drawn) reaches 20 mm or more?
Met

Could you tell me if the measured inhibition zone (IZ) of COc1ccc2[nH]c([S+]([O-])Cc3nc4cc(Cl)ccc4n4cccc34)nc2c1 (stereo not drawn) reaches 20 mm or more?
Met

Could you tell me if the measured inhibition zone (IZ) of COC(=O)[C@H]1[C@H]2C[C@@H]3c4[nH]c5cc(OC)ccc5c4CCN3C[C@H]2C[C@@H](OC(=O)c2cc(OC)c(OC)c(OC)c2)[C@@H]1OC reaches 20 mm or more?
Met

###

Hi there, I'd appreciate the recorded inhibition zone (IZ) for every entry that follows.
Test system: Staphylococcus aureus
EXPERIMENT NOTES: Increase in 5 ug ofloxacin antibacterial activity against Staphylococcus aureus SA1199B mutant overexpressing NorA at 128 ug/ml by disk diffusion method
Assay type: functional
Provide the reading as a plain figure in mm.

GET /values?readout=inhibition zone (IZ)&item= COc1ccc2c(c1)nc([S+]([O-])Cc1nc3ccccc3n3cccc13)c1cccn12 (stereo not given)
19

GET /values?readout=inhibition zone (IZ)&item= COc1ccc2[nH]c([S+]([O-])Cc3nc4ccc(Cl)cc4n4cccc34)nc2c1 (stereo not given)
21

GET /values?readout=inhibition zone (IZ)&item= COc1ccc2c(c1)nc(C[S+]([O-])c1nc3ccccc3[nH]1)c1cccn12 (stereo not given)
25

GET /values?readout=inhibition zone (IZ)&item= [O-][S+](Cc1nc2ccccc2n2cccc12)c1ncc[nH]1 (stereo not given)
19

GET /values?readout=inhibition zone (IZ)&item= COc1ccc2[nH]c([S+]([O-])Cc3nc4cc(OC)ccc4n4cccc34)nc2c1 (stereo not given)
25

###

Hi there, I'd appreciate the recorded zone of inhibition at 5 µg/disc for every entry that follows.
System: Staphylococcus aureus
EXPERIMENT NOTES: Antibacterial activity against Staphylococcus aureus SA1199B overexpressing NorA at 5 ug by disk diffusion method
Assay type: functional
CONDITION: read-out: IZ
Provide the reading as a plain figure in mm.

zone of inhibition at 5 µg/disc of COc1c(N2C[C@@H]3CCCN[C@@H]3C2)c(F)cc2c(=O)c(C(=O)O)cn(C3CC3)c12 [MOXIFLOXACIN] on Staphylococcus aureus?
27

zone of inhibition at 5 µg/disc of CCn1cc(C(=O)O)c(=O)c2cc(F)c(N3CCNCC3)cc21 [NORFLOXACIN] on Staphylococcus aureus?
27

zone of inhibition at 5 µg/disc of CC1COc2c(N3CCN(C)CC3)c(F)cc3c(=O)c(C(=O)O)cn1c23 (centres undefined) [OFLOXACIN] on Staphylococcus aureus?
27

zone of inhibition at 5 µg/disc of O=C(O)c1cn(C2CC2)c2cc(N3CCNCC3)c(F)cc2c1=O [CIPROFLOXACIN] on Staphylococcus aureus?
13

FYI, the data here is from ChEMBL document CHEMBL1142063.
